What Kd was measured for each of the following?
Target or system: T1, FAT domain of Focal Adhesion Kinase, wild type (hFAK904-1052) (human, UniProt Q05397 904-1052)
T1 chain: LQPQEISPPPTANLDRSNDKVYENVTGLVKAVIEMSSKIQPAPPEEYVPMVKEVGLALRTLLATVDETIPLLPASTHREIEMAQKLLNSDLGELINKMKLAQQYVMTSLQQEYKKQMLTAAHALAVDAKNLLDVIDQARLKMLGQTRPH
Test description: FP
Ends that are not written are not given here.
State the answer as a number, implicitly in µM.

Fill blank: measured Kd of the binder SNLSELDRLLLELNAVQHN (also: FITC label, position not given here) [paxillin LD2 peptide] is ____. 1.8

Quick check: Kd of MDDLDALLADLES (also: FITC label, position not given here) [paxillin LD1 peptide] ? 18.3
